# Method Notes: method code SF, from Recanatgini, M.; Leoni, A.; Baraldi, G. (1991). Partition coefficients of 3-methyl-4-nitropyrazole-5-carboxamides. 16, 127-130.
# Test Conditions: pH 1.0
Record form. Attribute: logD. Fill in for each entry.
The reply should be a number, written without any unit.

Measured logD of `CCCCNC(=O)c1[nH]nc(C)c1[N+](=O)[O-]` : 1.27

Measured logD of `CCCCCCNC(=O)c1[nH]nc(C)c1[N+](=O)[O-]` : 2.46

Measured logD of `Cc1n[nH]c(C(=O)N2CCCCCC2)c1[N+](=O)[O-]` : 1.15

Measured logD of `Cc1n[nH]c(C(=O)N(C)Cc2ccccc2)c1[N+](=O)[O-]` : 1.65

Measured logD of `CCCCCCCCNC(=O)c1[nH]nc(C)c1[N+](=O)[O-]` : 3.48

Measured logD of `Cc1n[nH]c(C(=O)NC23CC4CC(CC(C4)C2)C3)c1[N+](=O)[O-]` : 2.83

Measured logD of `Cc1[nH]nc(C(=O)NC2CC2)c1[N+](=O)[O-]` : 0.25

Measured logD of `Cc1n[nH]c(C(=O)NCc2ccccc2)c1[N+](=O)[O-]` : 1.49

Measured logD of `Cc1n[nH]c(C(=O)NCCc2ccccc2)c1[N+](=O)[O-]` : 1.82

Measured logD of `Cc1[nH]nc(C(=O)N2CCCCC2)c1[N+](=O)[O-]` : 0.79

Measured logD of `CCCCCCCCCCNC(=O)c1[nH]nc(C)c1[N+](=O)[O-]` : 4.48

Measured logD of `Cc1n[nH]c(C(=O)N2CCCC2)c1[N+](=O)[O-]` : 0.25

Measured logD of `Cc1n[nH]c(C(=O)Nc2ccccc2)c1[N+](=O)[O-]` : 1.81

Measured logD of `Cc1n[nH]c(C(N)=O)c1[N+](=O)[O-]` : -0.38

Measured logD of `Cc1n[nH]c(C(=O)NC2CCCC2)c1[N+](=O)[O-]` : 1.24

Measured logD of `Cc1n[nH]c(C(=O)NC2CCCCC2)c1[N+](=O)[O-]` : 1.71

Measured logD of `CNC(=O)c1n[nH]c(C)c1[N+](=O)[O-]` : -0.23

Measured logD of `CCCNC(=O)c1[nH]nc(C)c1[N+](=O)[O-]` : 0.65

Measured logD of `CCNC(=O)c1n[nH]c(C)c1[N+](=O)[O-]` : 0.13

Measured logD of `Cc1n[nH]c(C(=O)N(C)C2CCCCC2)c1[N+](=O)[O-]` : 1.68

The reported numbers originate from the SangsterLogP compilation.
